experiment summary: Pharmacokinetic study in rhesus monkey
Assay type: in vivo
test parameters: plasma, sc, 10 nmol kg^−1
Square brackets hold non-standard residues; d marks the D form. Ends that are not written are not given here. * marks the point of attachment. FITC = O=C1OC2(c3ccc(O)cc3Oc3cc(O)ccc32)c2ccc(NC(=S)*)cc21; Palmitoyl = CCCCCCCCCCCCCCCC(=O)*; Aib = CC(C)(N)C(=O)O; Ahx = NCCCCCC(=O)O
test readout: half-life (h)
The answer is to be given in h; state only the numeric part.

Input {FITC-Ahx}-EYEEK(Palmitoyl)YEGGGGSGGGGSFNPRH[Aib]EGTFTSDVSSYLEGQAAKEFIAWLVKGRG (N-terminus assumed) [PES14] , output reported half-life.
62.6

###

subject of test: HSA (Homo sapiens)
Sequence (P02768 25-609): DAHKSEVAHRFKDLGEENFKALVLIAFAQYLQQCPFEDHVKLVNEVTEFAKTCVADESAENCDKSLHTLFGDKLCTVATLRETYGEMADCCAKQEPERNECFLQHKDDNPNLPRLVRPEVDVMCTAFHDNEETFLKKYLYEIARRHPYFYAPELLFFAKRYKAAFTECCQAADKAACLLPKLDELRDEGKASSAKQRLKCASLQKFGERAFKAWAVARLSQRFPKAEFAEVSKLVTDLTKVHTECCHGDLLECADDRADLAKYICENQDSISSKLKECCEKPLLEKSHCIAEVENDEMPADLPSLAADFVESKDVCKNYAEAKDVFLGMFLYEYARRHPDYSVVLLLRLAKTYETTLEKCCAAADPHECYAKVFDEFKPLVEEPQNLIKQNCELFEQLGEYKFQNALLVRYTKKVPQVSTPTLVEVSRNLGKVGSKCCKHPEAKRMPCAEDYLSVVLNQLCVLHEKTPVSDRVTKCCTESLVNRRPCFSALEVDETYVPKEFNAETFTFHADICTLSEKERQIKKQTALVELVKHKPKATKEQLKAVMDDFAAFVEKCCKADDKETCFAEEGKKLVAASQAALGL
experiment summary: Albumin binding affinity by surface plasmon resonance
test parameters: SPR, BIAcoT200 system, HSA
Square brackets hold non-standard residues; d marks the D form. Ends that are not written are not given here. * marks the point of attachment. FITC = O=C1OC2(c3ccc(O)cc3Oc3cc(O)ccc32)c2ccc(NC(=S)*)cc21; Stearoyl = CCCCCCCCCCCCCCCCCC(=O)*; Palmitoyl = CCCCCCCCCCCCCCCC(=O)*; Myristoyl = CCCCCCCCCCCCCC(=O)*; Aib = CC(C)(N)C(=O)O; Ahx = NCCCCCC(=O)O
In this section, each of the substances is paired with its reported k a.

> print(dat)
                                  substance  test.readout         result
1  {FITC-Ahx}-EYK(Palmitoyl)EEYEGGGGSGGGGSFNPRH[Aib]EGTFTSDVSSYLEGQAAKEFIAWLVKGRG (N-terminus assumed) [PES08]           k a  26700 M⁻¹ s⁻¹
2  {FITC-Ahx}-EK(Stearoyl)YEEYEGGGGSGGGGSFNPRH[Aib]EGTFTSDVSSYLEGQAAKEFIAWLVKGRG (N-terminus assumed) [PES06]           k a  18800 M⁻¹ s⁻¹
3  {FITC-Ahx}-EYEK(Palmitoyl)EYEGGGGSGGGGSFNPRH[Aib]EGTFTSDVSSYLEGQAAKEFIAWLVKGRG (N-terminus assumed) [PES11]           k a   8380 M⁻¹ s⁻¹

Input {FITC-Ahx}-K(Myristoyl)EYEEYEGGGGSGGGGSFNPRH[Aib]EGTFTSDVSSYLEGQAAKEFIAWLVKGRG (N-terminus assumed) [PES01] , output reported k a.
6900 M⁻¹ s⁻¹

Input {FITC-Ahx}-EYEEYEK(Palmitoyl)GGGGSGGGGSFNPRH[Aib]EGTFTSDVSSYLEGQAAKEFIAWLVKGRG (N-terminus assumed) [PES20] , output reported k a.
3180 M⁻¹ s⁻¹

Input {FITC-Ahx}-K(Stearoyl)EYEEYEGGGGSGGGGSFNPRH[Aib]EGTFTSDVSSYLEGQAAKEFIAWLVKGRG (N-terminus assumed) [PES03] , output reported k a.
12800 M⁻¹ s⁻¹

###

experiment summary: Pharmacokinetic study in rhesus monkey
Assay type: in vivo
test parameters: plasma, sc, 30 nmol kg^−1
Square brackets hold non-standard residues; d marks the D form. Ends that are not written are not given here. * marks the point of attachment. FITC = O=C1OC2(c3ccc(O)cc3Oc3cc(O)ccc32)c2ccc(NC(=S)*)cc21; Palmitoyl = CCCCCCCCCCCCCCCC(=O)*; Aib = CC(C)(N)C(=O)O; Ahx = NCCCCCC(=O)O
test readout: half-life (days)
The answer is to be given in days; state only the numeric part.

Input {FITC-Ahx}-EYEEK(Palmitoyl)YEGGGGSGGGGSFNPRH[Aib]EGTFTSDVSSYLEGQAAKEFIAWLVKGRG (N-terminus assumed) [PES14] , output reported half-life.
3.28

Measured values drawn from paper PMC9049141 for this set.
